compounds and their reported pIC50
Target Or Test System: EP2 receptor (Homo sapiens)
Construct: expressed in transfected cells; host or cells: CHO-K1 cells (ATCC), transient transfection with FuGENE 6
Assay Explanation: EP2 potency assay (cAMP TR-FRET, LANCE Ultra cAMP kit) in transfected CHO-K1 cells stimulated with PGE2 at EC80
Assay type: cell-based
Condition Context: Table (V), EP2 antagonism, CHO-K1 cells expressing EP2, PGE2 at EC80
pIC50: −log10 of the molar value.

Compound | pIC50
Cn1cc(-c2ncc(CN3CCOc4c(Cl)cc(-n5ccc6cc(F)ccc65)cc4C3)cn2)cn1 [II-2] | 5.30 to 6.00
CS(=O)(=O)Nc1ncc(CN2CCOc3c(Cl)cc(-n4ccc5cc(F)ccc54)cc3C2)cn1 [II-13] | 5.30 to 6.00
Fc1ccc2c(ccn2-c2cc(Cl)c3c(c2)CN(Cc2cnc(C4CC4)nc2)CCO3)c1 [II-21] | 6.00 to 6.30
COc1ncc(CN2CCOc3c(Cl)cc(-n4ncc5cc(F)ccc54)cc3C2)cn1 [II-33] | > 7.00
O=c1ncc(CN2CCOc3c(Cl)cc(-n4ncc5cc(F)ccc54)cc3C2)c[nH]1 [II-44] | > 7.00
CC(=O)Nc1ncc(CN2CCOc3c(Cl)cc(-n4ccc5cc(F)ccc54)cc3C2)cn1 [II-14] | 5.30 to 6.00
COc1ncc(CN2CCOc3c(Cl)cc(-n4ccc5cc(C6CC6)ccc54)cc3C2)cn1 [II-10] | < 5.30
Cn1ncc(CN2CCOc3c(Cl)cc(-n4ccc5cc(F)ccc54)cc3C2)cc1=O [II-32] | 6.30 to 7.00
O=c1ncc(CN2CCOc3c(Cl)cc(-c4coc5cc(F)ccc45)cc3C2)c[nH]1 [II-38] | > 7.00
Fc1ccc2c(ccn2-c2cc(Cl)c3c(c2)CN(Cc2cncnc2)CCO3)c1 [II-9] | 6.30 to 7.00
Fc1ccc2c(ccn2-c2cc(Cl)c3c(c2)CN(Cc2cnc(OCC(F)(F)F)nc2)CCO3)c1 [II-1] | < 5.30
Nc1ncc(CN2CCOc3c(Cl)cc(-n4ccc5c(F)c(F)ccc54)cc3C2)cn1 [II-36] | > 7.00
Fc1ccc2c(-c3cc(Cl)c4c(c3)CN(Cc3cnc(-c5nnn[nH]5)nc3)CCO4)coc2c1 [II-43] | > 7.00
Fc1ccc2c(ccn2-c2cc(Cl)c3c(c2)CN(Cc2cnc(-c4nnn[nH]4)nc2)CCO3)c1F [II-42] | > 7.00
O=C(O)c1ccc(CN2CCOc3c(Cl)cc(-n4ccc5cc(F)ccc54)cc3C2)cn1 [II-15] | > 7.00
CS(=O)(=O)NC(=O)c1ncc(CN2CCOc3c(Cl)cc(-n4ccc5cc(F)ccc54)cc3C2)cn1 [II-25] | > 7.00
COC(=O)c1ccc(CN2CCOc3c(Cl)cc(-n4ccc5cc(F)ccc54)cc3C2)cn1 [II-19] | 6.30 to 7.00

* * *

Target Or Test System: EP2 receptor (Homo sapiens)
Construct: expressed in transfected cells; host or cells: CHO-K1 cells (ATCC), transient transfection with FuGENE 6
Assay Explanation: EP2 potency assay (cAMP TR-FRET, LANCE Ultra cAMP kit) in transfected CHO-K1 cells stimulated with PGE2 at EC80
Format: cell-based
Condition Context: Table (V), EP2 antagonism, CHO-K1 cells expressing EP2, PGE2 at EC80
pIC50: −log10 of the molar value.
compounds and their reported pIC50
Measured Parameter: pIC50

Compound | Recorded Measurement
N#CCc1ncc(CN2CCOc3c(Cl)cc(-n4ccc5cc(F)ccc54)cc3C2)cn1 [II-17] | 6.30 to 7.00
Cc1nc(Cl)nc(C)c1CN1CCOc2c(Cl)cc(-n3ccc4cc(F)ccc43)cc2C1 [II-28] | 5.30 to 6.00
Nc1ncc(CN2CCOc3c(Cl)cc(-n4ccc5cc(F)ccc54)cc3C2)c(N)n1 [II-11] | 6.30 to 7.00
CCOC(=O)c1ncc(CN2CCOc3c(Cl)cc(-n4ccc5c(F)c(F)ccc54)cc3C2)cn1 [II-74] | > 7.00
COc1ncncc1CN1CCOc2c(Cl)cc(-n3ccc4cc(F)ccc43)cc2C1 [II-29] | 6.00 to 6.30

* * *

Target Or Test System: EP2 receptor (Homo sapiens, UniProt P43116)
Construct: expressed in transfected cells; host or cells: CHO-K1 cells (ATCC), transient transfection with FuGENE 6
Sequence (P43116 whole entry): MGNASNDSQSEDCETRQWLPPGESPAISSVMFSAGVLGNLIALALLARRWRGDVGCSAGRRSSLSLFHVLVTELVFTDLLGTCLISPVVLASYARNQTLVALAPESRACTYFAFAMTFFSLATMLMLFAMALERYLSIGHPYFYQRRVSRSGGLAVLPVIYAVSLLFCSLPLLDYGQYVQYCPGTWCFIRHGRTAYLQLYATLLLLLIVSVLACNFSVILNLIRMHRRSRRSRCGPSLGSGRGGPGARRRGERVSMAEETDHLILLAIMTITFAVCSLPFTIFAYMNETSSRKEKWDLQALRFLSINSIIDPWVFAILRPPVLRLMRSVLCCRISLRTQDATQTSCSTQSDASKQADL
Assay Explanation: EP2 potency assay (cAMP TR-FRET, LANCE Ultra cAMP kit) in transfected CHO-K1 cells stimulated with PGE2 at EC80
Format: cell-based
Condition Context: Table (IV), EP2 antagonism, CHO-K1 cells expressing EP2, PGE2 at EC80
Measured Parameter: IC50

Compound | Recorded Measurement
COc1ccc(C(=O)N2CCC(COc3ccc(C45CC(C4)C5)cc3)(C(=O)O)C2)cc1 (stereo not shown) [I-7] | 0.1 to 0.5 µM
COc1ccc(C(=O)N2CCC(COc3ccc(C45CC(C(N)=O)(C4)C5)cc3)(C(=O)O)C2)cc1 (stereo not shown) [I-8] | 0.1 to 0.5 µM
COc1ccc(C(N2CCC(COc3ccc(-c4ccc(C#N)cc4)cc3)(C(=O)O)C2)C(F)(F)F)cc1 (stereo not shown) [I-2] | > 5 µM
COc1ccc(C(=O)N2CCC(COc3ccc(Br)cc3)(C(O)C(F)(F)F)C2)cc1 (stereo not shown) [I-14] | > 5 µM
COc1ccc(C(=O)N2CCC(COc3ccc(-c4ccc(C#N)cc4)cc3)(S(=O)(=O)NS(C)(=O)=O)C2)cc1 (stereo not shown) [I-10] | > 5 µM
COc1ccc(C(=O)N2CCC(COc3ccc(-c4ccc(C#N)cc4)cc3)(S(C)(=N)=O)C2)cc1 (stereo not shown) [I-9] | > 5 µM
COc1ccc(C(=O)N2CCC(COc3ccc(-c4ccc(C#N)cc4)cc3)(C(O)C(F)(F)F)C2)cc1 (stereo not shown) [I-12] | > 5 µM
COc1ccc(C(=O)N2CCC(COc3ccc(-c4ccc(C#N)cc4)cc3)(C(O)(O)C(F)(F)F)C2)cc1 (stereo not shown) [I-13] | > 5 µM
COc1ccc(C(=O)N2CCC(COc3ccc(C45CC(C#N)(C4)C5)cc3)(C(=O)O)C2)cc1 (stereo not shown) [I-6] | < 0.1 µM
COc1ccc(C(=O)N2CCC(COc3ccc(C45CC(C(=O)O)(C4)C5)cc3)(C(=O)O)C2)cc1 (stereo not shown) [I-11] | > 5 µM

* * *

compounds and their reported IC50
Target Or Test System: EP2 receptor (Homo sapiens)
Construct: expressed in transfected cells; host or cells: CHO-K1 cells (ATCC), transient transfection with FuGENE 6
Assay Explanation: EP2 potency assay (cAMP TR-FRET, LANCE Ultra cAMP kit) in transfected CHO-K1 cells stimulated with PGE2 at EC80
Assay type: cell-based
Condition Context: Table (V), EP2 antagonism, CHO-K1 cells expressing EP2, PGE2 at EC80

Smiles Entry | IC50
O=c1ncc(CN2CCOc3c(Cl)cc(-n4ccc5cc(F)c(F)cc54)cc3C2)c[nH]1 | 1 to 5 µM
O=C(O)c1ncc(CN2CCOc3c(Cl)cc(-n4ccc5c(F)c(F)ccc54)cc3C2)cn1 | < 0.1 µM
Fc1ccc2c(ccn2-c2cc(Cl)c3c(c2)CN(Cc2cnc(C(F)(F)F)nc2)CCO3)c1 | 1 to 5 µM
Fc1ccc2c(ccn2-c2cc(Cl)c3c(c2)CN(Cc2cnc(-n4cccn4)nc2)CCO3)c1 | 1 to 5 µM

* * *

molecules and their reported pIC50
Target Or Test System: EP2 receptor (Homo sapiens, UniProt P43116)
Construct: expressed in transfected cells; host or cells: CHO-K1 cells (ATCC), transient transfection with FuGENE 6
Assay Explanation: EP2 potency assay (cAMP TR-FRET, LANCE Ultra cAMP kit) in transfected CHO-K1 cells stimulated with PGE2 at EC80
Format: cell-based
Condition Context: Table (V), EP2 antagonism, CHO-K1 cells expressing EP2, PGE2 at EC80
pIC50: −log10 of the molar value.
Measured Parameter: pIC50

Smiles Entry | Recorded Measurement
Nc1cc(CN2CCOc3c(Cl)cc(-n4ccc5cc(F)ccc54)cc3C2)cnn1 | 6.00 to 6.30
Fc1ccc2c(ccn2-c2cc(Cl)c3c(c2)CN(Cc2cnc4[nH]ncc4c2)CCO3)c1 | 5.30 to 6.00
Fc1ccc2c(ccn2-c2cc(Cl)c3c(c2)CN(Cc2cnc(-c4nnn[nH]4)nc2)CCO3)c1 | > 7.00
COCCc1ncc(CN2CCOc3c(Cl)cc(-n4ccc5cc(F)ccc54)cc3C2)cn1 | 6.00 to 6.30
CS(=O)(=O)Nc1cc(CN2CCOc3c(Cl)cc(-n4ccc5cc(F)ccc54)cc3C2)cnn1 | > 7.00
Cc1ncc(CN2CCOc3c(Cl)cc(-n4ccc5cc(F)ccc54)cc3C2)cn1 | 6.30 to 7.00
COc1ncc(CN2CCOc3c(Cl)cc(-c4csc5cc(F)ccc45)cc3C2)cn1 | 6.30 to 7.00
COc1ncc(CN2CCOc3c(Cl)cc(-c4coc5cc(F)ccc45)cc3C2)cn1 | > 7.00
O=c1ncc(CN2CCOc3c(Cl)cc(-c4csc5cc(F)ccc45)cc3C2)c[nH]1 | > 7.00
